Biological target: Substance-P receptor (Homo sapiens, UniProt P25103)
Sequence (P25103 whole entry): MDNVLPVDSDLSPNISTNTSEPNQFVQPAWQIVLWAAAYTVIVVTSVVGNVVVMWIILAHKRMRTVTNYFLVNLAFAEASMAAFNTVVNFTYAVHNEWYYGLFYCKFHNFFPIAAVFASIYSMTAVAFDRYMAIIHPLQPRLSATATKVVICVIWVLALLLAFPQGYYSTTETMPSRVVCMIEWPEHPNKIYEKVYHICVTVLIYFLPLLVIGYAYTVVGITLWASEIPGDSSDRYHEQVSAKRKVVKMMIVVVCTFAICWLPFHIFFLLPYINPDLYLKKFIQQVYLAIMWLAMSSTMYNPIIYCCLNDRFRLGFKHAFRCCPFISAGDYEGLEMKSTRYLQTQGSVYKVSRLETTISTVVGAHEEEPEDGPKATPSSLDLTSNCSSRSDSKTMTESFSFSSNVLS
Assay: Displacement of [3H]substance P from human recombinant NK1 receptor expressed in CHO cells
measure: Ki (nM)

I: COc1ccc(-n2nnnc2C(F)(F)F)cc1CN[C@H]1CCCN[C@H]1c1ccccc1 [VOFOPITANT]
II: Cc1cc(F)ccc1C1CNCCN1C(=O)N(C)Cc1cc(C(F)(F)F)cc(C(F)(F)F)c1 (racemic)
III: Cc1cc(F)ccc1[C@@H]1CNCCN1C(=O)N(C)Cc1cc(C(F)(F)F)cc(C(F)(F)F)c1
IV: Cc1cc(F)ccc1N1CCNCC1C(=O)N(C)Cc1cc(C(F)(F)F)cc(C(F)(F)F)c1 (centres undefined)
Inquiry: Form: Sort by [Ki] Order [ ascending ] Reply format: the labels, ordered as requested.
Reply text: I, II, IV, III
